target: T1, MHC class I molecule HLA-A*0201 (iTopia plate-bound monomer) (biotin (bound to streptavidin-coated plate))
T1 construct: also called A2
test_details: iTopia off-rate assay, 37 C; fit R^2 0.95
property_label: t½ half life (min)
Report the figure in min without appending any unit label.

See these solved cases before continuing.
binder	unit_symbol	t½ half life
AFSGSNASV (also called Peptide No 81) [5T4 9-mer peptide 81 AFSGSNASV]	min	42
LELASNHFL [5T4 9-mer peptide 108 LELASNHFL]	min	84
FSSSAPFLA (also called Peptide No 21) [5T4 9-mer peptide 21 FSSSAPFLA]	min	18
AQLPSLRHL [5T4 9-mer peptide 116 AQLPSLRHL]	min	42

Okay, next one:
Ask | # get_value(readout='t½ half life', item= RALQGLRRL [5T4 9-mer peptide 104 RALQGLRRL] )
Reply | 36
